Measured CC50 at 48 h, listed per entry for reference.
# Test method notes: MTT cell viability run in parallel with the Tat-hybrid assay
# Assay type: cell-based
# Setup conditions: human, Tat-hybrid reporter cell lines (HeLa); Table 5; read-out: Tat hybrid TC50
Measured property: CC50 at 48 h

Compound: NC(=O)c1cc2c(N3CCCCC3)cncc2s1
Measured property: CC50 at 48 h
Meas value: > 40 µM
--
Compound: CN(C=O)c1ccc(C(=O)N2CCN(c3cncc4sc(C(N)=O)c(N)c34)CC2)cc1
Measured property: CC50 at 48 h
Meas value: < 40 µM
--
Compound: NC(=O)c1cc2c(-c3ccc4c(c3)CCO4)cncc2s1 [drawing 128]
Measured property: CC50 at 48 h
Meas value: > 40 µM
--
Compound: CS(=O)(=O)c1ccc(C(=O)N2CCN(c3cncc4sc(C(N)=O)c(N)c34)CC2)cc1
Measured property: CC50 at 48 h
Meas value: < 40 µM
--
Compound: N#Cc1ccccc1-c1cncc2sc(C(N)=O)cc12 [drawing 164]
Measured property: CC50 at 48 h
Meas value: > 40 µM
--
Compound: NC(=O)c1cc2c(-c3cccc(-c4ccccc4)c3)cncc2s1 [drawing 145]
Measured property: CC50 at 48 h
Meas value: > 40 µM
--
Compound: NC(=O)c1cccc(-c2cncc3sc(C(N)=O)c(N)c23)c1
Measured property: CC50 at 48 h
Meas value: < 40 µM
--
Compound: NC(=O)c1sc2cncc(N3CCC(C(N)=O)CC3)c2c1N [drawing 158]
Measured property: CC50 at 48 h
Meas value: < 40 µM
--
Compound: CN(C)C(=O)c1ccc(-c2cncc3sc(C(N)=O)c(N)c23)cc1
Measured property: CC50 at 48 h
Meas value: < 40 µM
--
Compound: NC(=O)c1cc2c(-c3ccccc3OC(F)(F)F)cncc2s1
Measured property: CC50 at 48 h
Meas value: > 40 µM
--
Compound: CC(C)c1n[nH]c2c1CN(c1cncc3sc(C(N)=O)c(N)c13)CC2
Measured property: CC50 at 48 h
Meas value: < 40 µM
